// provenance: patent US20090048164A1

The entries below come with measured Fold/wt values attached.
- ASSAYED TARGET: Recombinant human Bcl-xL with a 25 amino acid truncation of its C-terminus (human) (UniProt Q07817)
- Sequence (Q07817 1-208): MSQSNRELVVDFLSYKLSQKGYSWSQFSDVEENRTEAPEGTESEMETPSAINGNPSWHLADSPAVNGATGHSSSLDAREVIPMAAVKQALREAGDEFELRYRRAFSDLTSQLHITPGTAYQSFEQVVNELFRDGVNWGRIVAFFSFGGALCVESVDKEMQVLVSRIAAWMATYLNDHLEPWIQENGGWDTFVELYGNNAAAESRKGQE
- ASSAY REMARKS: competition phage ELISA
Give just the number in fold; leave the unit off.

Worked cases, Fold/wt given:
ASSTMGQVGRQLAIIGDDINRRYDSE [Bak BH3 P1A, phage-displayed]
1
NLWAAQRYGAELRRMSDEFVDSFKKG [Bad BH3 R10A, phage-displayed]
1
PSATMGQVGRQLAIIGDDINRRYDSE [Bak BH3 S3A, phage-displayed]
1
NLWAAQRYGRELRRMSDAFVDSFKKG [Bad BH3 E18A, phage-displayed]
2

Lookup: Give recorded Fold/wt. ALWAAQRYGRELRRMSDEFVDSFKKG [Bad BH3 N1A, phage-displayed]
Found: 1

Lookup: Give recorded Fold/wt. NLWAAQRYGRELRRMSAEFVDSFKKG [Bad BH3 D17A, phage-displayed]
Found: 7

Lookup: Give recorded Fold/wt. PSSTMGQVGRALAIIGDDINRRYDSE [Bak BH3 Q11A, phage-displayed]
Found: 5
